# system: p110γ (Homo sapiens, UniProt P48736)
# Sequence (P48736 whole entry): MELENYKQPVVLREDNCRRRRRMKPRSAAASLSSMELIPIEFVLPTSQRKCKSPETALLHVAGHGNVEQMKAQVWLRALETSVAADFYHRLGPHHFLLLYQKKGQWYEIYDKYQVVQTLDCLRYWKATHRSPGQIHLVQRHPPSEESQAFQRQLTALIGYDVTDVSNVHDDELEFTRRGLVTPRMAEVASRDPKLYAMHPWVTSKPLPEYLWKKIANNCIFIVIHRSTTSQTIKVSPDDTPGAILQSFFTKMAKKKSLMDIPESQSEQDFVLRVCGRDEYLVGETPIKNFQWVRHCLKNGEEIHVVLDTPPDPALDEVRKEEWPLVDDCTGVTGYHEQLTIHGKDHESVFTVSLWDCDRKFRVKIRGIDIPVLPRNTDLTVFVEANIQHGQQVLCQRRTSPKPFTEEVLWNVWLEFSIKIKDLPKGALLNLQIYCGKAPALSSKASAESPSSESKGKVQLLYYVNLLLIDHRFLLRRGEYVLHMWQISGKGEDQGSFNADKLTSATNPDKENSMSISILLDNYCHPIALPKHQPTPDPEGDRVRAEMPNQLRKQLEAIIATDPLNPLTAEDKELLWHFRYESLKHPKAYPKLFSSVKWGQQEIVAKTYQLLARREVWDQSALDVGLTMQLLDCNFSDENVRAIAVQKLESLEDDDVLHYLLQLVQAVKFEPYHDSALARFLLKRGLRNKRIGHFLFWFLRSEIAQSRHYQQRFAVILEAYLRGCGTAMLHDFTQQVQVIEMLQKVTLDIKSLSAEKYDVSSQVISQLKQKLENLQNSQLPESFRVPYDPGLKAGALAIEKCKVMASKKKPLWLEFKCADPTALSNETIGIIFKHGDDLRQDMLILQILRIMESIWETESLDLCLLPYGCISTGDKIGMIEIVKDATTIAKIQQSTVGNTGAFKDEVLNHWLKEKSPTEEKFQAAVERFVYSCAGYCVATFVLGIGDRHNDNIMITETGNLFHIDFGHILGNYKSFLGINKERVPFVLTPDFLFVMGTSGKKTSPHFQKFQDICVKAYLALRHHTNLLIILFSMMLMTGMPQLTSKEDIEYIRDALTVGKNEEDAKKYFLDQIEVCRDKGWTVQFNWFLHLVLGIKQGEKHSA
# method: Transcreener KINASE Assay, kinase inhibition of p110γ
# Assay type: biochemical
# setupConditions: 1 uM test compound
# PI3Kγ IH % @ 1 uM annotations

Would you please look over these solved cases?
COc1ncc(-c2c[nH]c3ncnc(N4CC[C@H]4c4nn5ccc(F)c5c(=O)n4-c4ccccc4)c23)cn1 >100%
Cn1c([C@@H]2CCCN2c2ncnc3[nH]cc(C#N)c23)nn2ccc(Cl)c2c1=O >100%

As a next step, examine the compound that follows.
Query string: State the recorded PI3Kγ IH % @ 1 uM for this entry: CC(=O)c1c(C)nc(N)nc1N1CC[C@H]1c1nn2ccc(Cl)c2c(=O)n1-c1ccccc1
Result string: >100%

* * *

# system: p110γ (Homo sapiens)
# method: Transcreener KINASE Assay, kinase inhibition of p110γ
# Type: biochemical
# setupConditions: 1 uM test compound
reportedProperty: PI3Kγ IH % @ 1 uM

Consider the following illustrative entries.
compound	system	PI3Kγ IH % @ 1 uM
CO[C@H]1C[C@@H](c2nn3ccc(Cl)c3c(=O)n2-c2ccccc2)N(c2ncnc3[nH]cnc23)C1 [Compound 263]	p110γ (Homo sapiens)	>100%
N#Cc1c[nH]c2ncnc(N3CCC[C@H]3c3nn4ccc(Cl)c4c(=O)n3Cc3ccccn3)c12 [Compound 65]	p110γ (Homo sapiens)	>100%

For the next question, use this compound.
Query string: What PI3Kγ IH % @ 1 uM value was documented for this compound, Nc1ccc(-c2c[nH]c3ncnc(N4CC[C@H]4c4nn5ccc(F)c5c(=O)n4-c4ccccc4)c23)cn1 [Compound 183] ?
Result string: >100%

* * *

# system: p110β/p85α (Homo sapiens)
# method: Transcreener KINASE Assay, kinase inhibition of p110β/p85α
# Type: biochemical
# setupConditions: 1 uM test compound
reportedProperty: PI3Kβ IH % @ 1 uM (%)

Known results for compounds:
compound	PI3Kβ IH % @ 1 uM, %
N#Cc1c[nH]c2ncnc(N3CCC[C@H]3c3nn4ccc(CO)c4c(=O)n3-c3ccccc3)c12	51.5
CSc1n[nH]c2ncnc(N3CC[C@H]3c3nn4ccc(Cl)c4c(=O)n3-c3ccccc3)c12	40.5
Cn1c([C@@H]2CCCN2c2ncnc3[nH]cc(C#N)c23)nn2ccc(Cl)c2c1=O	93.7
N#Cc1c(N)nc(N)nc1N1CCC1c1nn2ccc(Cl)c2c(=O)n1-c1ccccc1 (stereo not drawn)	91.9
C[C@H]1CN(c2nc(N)ncc2C#N)C1c1nn2ccc(F)c2c(=O)n1-c1ccccc1 (stereo partly drawn)	28.1
N#Cc1cnc(N)nc1N1CCC[C@H]1c1nn2ccc(Cl)c2c(=O)n1-c1cccc(F)c1	63.4
N#Cc1cnc(N)nc1N1CC[C@H]1c1nn2ccc(Cl)c2c(=O)n1-c1ccccc1	37.0
N#C[C@@H]1C[C@@H](c2nn3ccc(Cl)c3c(=O)n2-c2ccccc2)N(c2ncnc3[nH]cnc23)C1	62.0

(a) CC(=O)c1c[nH]c2ncnc(N3C[C@@H](F)C[C@H]3c3nn4ccc(Cl)c4c(=O)n3-c3cccc(F)c3)c12
(b) Cc1nc(N)nc(N2CCC[C@H]2c2nn3ccc(Cl)c3c(=O)n2-c2ccccc2)n1
Query string: I'd appreciate it if you could identify which of a and b has the greater PI3Kβ IH % @ 1 uM. Answer = label.
Result string: a

(P) C[S+]([O-])c1c[nH]c2ncnc(N3CCC[C@H]3c3nn4ccc(Cl)c4c(=O)n3-c3ccccc3)c12 (stereo partly drawn) [Compound 187]
(Q) Cc1nc(N)nc(N2CC[C@H]2c2nn3ccc(F)c3c(=O)n2-c2ccccc2)c1C#N
Query string: Recorded PI3Kβ IH % @ 1 uM values differ for P and Q ; which one is higher? Lab log: write the label of the selected item as the result.
Result string: P

* * *

# system: p110β/p85α (Homo sapiens)
# method: Transcreener KINASE Assay, kinase inhibition of p110β/p85α
# Assay type: biochemical
# setupConditions: 1 uM test compound
reportedProperty: PI3Kβ IH % @ 1 uM (%)

# example entries with known answers
molecule	unitAbbrev	PI3Kβ IH % @ 1 uM
N#Cc1c[nH]c2ncnc(N3CCC[C@H]3c3nn4ccc(Cl)c4c(=O)n3CC3CC3)c12	%	82.4
CC(=O)c1cnc(N)nc1N1CC[C@H]1c1nn2ccc(Cl)c2c(=O)n1-c1ccc(F)cc1	%	57.8
O=c1c2c(F)ccn2nc([C@@H]2CCCN2c2ncnc3[nH]cnc23)n1-c1ccccn1	%	52.6

(P) Cc1ccn2cc(C(C)Nc3ncnc4[nH]cc(C#N)c34)n(-c3ccccc3)c(=O)c12 (stereo not drawn)
(Q) N#Cc1c(N)ncnc1N1CC[C@H]1c1nn2ccc(Br)c2c(=O)n1-c1ccccc1
Query string: Could you tell me which of these two has the smaller PI3Kβ IH % @ 1 uM figure? First: P Second: Q State the label of the item chosen.
Result string: Q
(Q: 29.5%, P: 78.3%)

* * *

# system: p110γ (Homo sapiens, UniProt P48736)
# method: Transcreener KINASE Assay, kinase inhibition of p110γ
# Format: biochemical
# setupConditions: 1 uM test compound
reportedProperty: PI3Kγ IH % @ 1 uM (%)

compound	measured
COc1ncc(-c2c[nH]c3ncnc(NC(C)c4cc5ncc(Cl)n5c(=O)n4-c4ccccc4)c23)cn1 (stereo not shown)	87.6
COCc1ccn2nc([C@@H]3CCCN3c3ncnc4[nH]cc(C#N)c34)n(-c3ccccc3)c(=O)c12	92.6
C[S+]([O-])c1n[nH]c2ncnc(N3CCC[C@H]3c3nn4ccc(Cl)c4c(=O)n3-c3ccccc3)c12 (stereo partly shown)	97.2

* * *

# system: p110β/p85α (Homo sapiens, UniProt P42338)
# Sequence (P42338 whole entry): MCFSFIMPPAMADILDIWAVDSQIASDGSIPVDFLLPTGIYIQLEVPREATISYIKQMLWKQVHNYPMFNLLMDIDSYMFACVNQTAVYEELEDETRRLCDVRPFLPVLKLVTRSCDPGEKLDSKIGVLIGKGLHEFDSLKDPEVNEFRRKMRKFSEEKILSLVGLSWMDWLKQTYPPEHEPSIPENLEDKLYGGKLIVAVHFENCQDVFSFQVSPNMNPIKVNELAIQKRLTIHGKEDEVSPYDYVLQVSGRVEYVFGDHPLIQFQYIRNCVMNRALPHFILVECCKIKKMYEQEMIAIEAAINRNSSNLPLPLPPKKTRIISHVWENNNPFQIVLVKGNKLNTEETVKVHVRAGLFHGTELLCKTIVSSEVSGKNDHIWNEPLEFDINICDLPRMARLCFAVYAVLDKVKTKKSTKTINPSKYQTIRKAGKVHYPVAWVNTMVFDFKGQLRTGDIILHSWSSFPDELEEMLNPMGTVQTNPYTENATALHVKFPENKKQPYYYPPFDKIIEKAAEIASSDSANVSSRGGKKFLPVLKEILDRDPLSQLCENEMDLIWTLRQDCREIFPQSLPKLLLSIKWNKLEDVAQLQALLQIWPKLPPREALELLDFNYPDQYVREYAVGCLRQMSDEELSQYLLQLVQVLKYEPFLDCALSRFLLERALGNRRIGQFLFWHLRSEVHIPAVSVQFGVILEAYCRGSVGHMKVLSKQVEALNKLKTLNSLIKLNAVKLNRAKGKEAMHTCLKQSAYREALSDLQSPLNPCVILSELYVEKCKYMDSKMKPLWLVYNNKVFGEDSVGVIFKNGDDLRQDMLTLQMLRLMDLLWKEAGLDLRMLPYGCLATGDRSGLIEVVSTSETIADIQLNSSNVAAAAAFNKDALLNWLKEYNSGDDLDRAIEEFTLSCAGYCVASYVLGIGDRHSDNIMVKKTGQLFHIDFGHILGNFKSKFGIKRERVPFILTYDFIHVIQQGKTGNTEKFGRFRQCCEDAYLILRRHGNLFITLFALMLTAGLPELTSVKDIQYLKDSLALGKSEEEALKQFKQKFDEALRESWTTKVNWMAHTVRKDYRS
# Sequence (P27986 2-724 partner): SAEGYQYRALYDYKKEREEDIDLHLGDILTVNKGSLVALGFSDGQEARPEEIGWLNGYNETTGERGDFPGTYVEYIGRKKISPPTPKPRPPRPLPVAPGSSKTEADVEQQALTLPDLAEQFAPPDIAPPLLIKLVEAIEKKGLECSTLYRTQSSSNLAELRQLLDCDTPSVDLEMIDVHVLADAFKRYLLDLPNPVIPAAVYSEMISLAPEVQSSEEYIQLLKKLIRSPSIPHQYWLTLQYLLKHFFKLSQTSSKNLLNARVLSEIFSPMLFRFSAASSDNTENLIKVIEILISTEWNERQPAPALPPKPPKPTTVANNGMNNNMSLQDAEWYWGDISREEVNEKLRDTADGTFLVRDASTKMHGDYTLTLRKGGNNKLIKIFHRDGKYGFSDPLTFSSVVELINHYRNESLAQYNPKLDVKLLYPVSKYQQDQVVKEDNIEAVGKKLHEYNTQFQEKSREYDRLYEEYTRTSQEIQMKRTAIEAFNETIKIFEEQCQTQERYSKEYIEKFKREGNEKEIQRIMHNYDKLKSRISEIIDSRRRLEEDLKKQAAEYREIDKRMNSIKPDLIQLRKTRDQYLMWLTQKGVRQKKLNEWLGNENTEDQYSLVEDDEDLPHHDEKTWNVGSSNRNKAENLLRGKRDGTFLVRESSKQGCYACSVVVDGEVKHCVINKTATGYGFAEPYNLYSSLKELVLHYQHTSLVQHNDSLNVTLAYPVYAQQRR
# method: Transcreener KINASE Assay, kinase inhibition of p110β/p85α
# setupConditions: read-out: PI3Kβ IC50
reportedProperty: IC50 (nM)

See these solved cases before continuing.
compound	IC50 (nM)
Cc1ccn2nc([C@@H]3CCCN3c3nc(N)nc4[nH]cnc34)n(-c3ccccc3)c(=O)c12 [Compound 44]	302
C[C@H]1CN(c2nc(N)nc(N)c2C#N)[C@@H]1c1nn2ccc(Cl)c2c(=O)n1-c1ccc(F)cc1 [Compound 480]	81
COc1ccc(-c2c[nH]c3ncnc(N4CC[C@H]4c4nn5ccc(F)c5c(=O)n4-c4ccccc4)c23)cn1 [Compound 182]	62
CC(Nc1ncnc2[nH]cc(C#N)c12)c1cn2ccc(Cl)c2c(=O)n1-c1cccc(F)c1 (stereo not shown) [Compound 277]	247
CC(=O)c1cnc(N)nc1N1C[C@H](C)[C@H]1c1nn2ccc(Cl)c2c(=O)n1-c1ccccn1 [Compound 473]	454

(A) C[C@H]1CN(c2ncnc3[nH]cc(C#N)c23)C1c1nn2ccc(Cl)c2c(=O)n1-c1ccccc1 (stereo partly shown) [Compound 235]
(B) N#Cc1cnc(N)nc1N1C[C@@H](C#N)C[C@H]1c1nn2ccc(Cl)c2c(=O)n1-c1ccccc1 [Compound 351]
(C) O=c1c2c(Cl)ccn2nc([C@@H]2CCCN2c2ncnc3[nH]cnc23)n1-c1ccccn1 [Compound 311]
(D) Nc1ncc(-c2c[nH]c3ncnc(N4CC[C@H]4c4nn5ccc(Cl)c5c(=O)n4-c4ccccc4)c23)cn1 [Compound 104]
(E) CC(Nc1ncnc(N)c1C#N)c1cc2c(Cl)cc(Cl)n2c(=O)n1-c1ccccc1 (stereo not shown) [Compound 126]
Query string: Arrange items by their IC50 values in increasing order. Please express your ranking as an ordered list of the labels.
Result string: D, E, B, A, C

* * *

The compounds listed here are annotated with their PI3Kγ IH % @ 1 uM.
# system: p110γ (Homo sapiens)
# method: Transcreener KINASE Assay, kinase inhibition of p110γ
# Assay type: biochemical
# setupConditions: 1 uM test compound

Check out these entries, answers already filled in.
compound	system	measured
O=c1c2c(F)ccn2nc([C@@H]2C[C@H](F)CN2c2ncnc3[nH]cnc23)n1-c1ccccc1 [Compound 132]	p110γ (Homo sapiens)	>100%
Cc1nc(N)nc(N2C[C@H](C)[C@H]2c2nn3ccc(F)c3c(=O)n2-c2ccc(F)cc2)c1C#N [Compound 463]	p110γ (Homo sapiens)	>100%
N#Cc1c[nH]c2ncnc(N3CCC[C@H]3c3nn4ccc(Cl)c4c(=O)n3CC3CC3)c12 [Compound 257]	p110γ (Homo sapiens)	>100%

Query compound follows.
Query string: Tell me the measured PI3Kγ IH % @ 1 uM of Nc1nc(N2CCC[C@H]2c2nn3ccc(Cl)c3c(=O)n2-c2ccccc2)c2cccn2n1 [Compound 331] , please.
Result string: >100%

* * *

// each record: one item and its IC50 for p110γ (Homo sapiens)
reportedProperty: IC50 (nM)

Record excerpt, results attached:
compound	reportedProperty	unitAbbrev	measured
C[C@H]1CN(c2nc(N)nc(N)c2C#N)C1c1nn2ccc(Cl)c2c(=O)n1-c1cccc(F)c1 (stereo partly drawn)	IC50	nM	2
O=c1c2c(Cl)ccn2nc([C@@H]2CCCN2c2ncnc3[nH]cc(F)c23)n1-c1ccccc1	IC50	nM	4
CC(=O)c1cnc(N)nc1N1CC[C@H]1c1nn2ccc(F)c2c(=O)n1-c1ccccc1	IC50	nM	21
N#Cc1c[nH]c2ncnc(N3CC[C@H]3c3nn4ccc(Cl)c4c(=O)n3-c3ccccn3)c12	IC50	nM	99
Nc1nc2c(c(N3CCCC3c3cn4ccc(Cl)c4c(=O)n3-c3ccccc3)n1)C(=O)CCN2 (stereo not drawn)	IC50	nM	1
C[S+]([O-])c1c[nH]c2ncnc(N3C[C@@H](F)C[C@H]3c3nn4ccc(Cl)c4c(=O)n3-c3ccccc3)c12 (stereo partly drawn)	IC50	nM	13
Nc1nc(N2CCC[C@H]2c2nn3ccc(Cl)c3c(=O)n2-c2ccccc2)n2nccc2n1	IC50	nM	30
N#Cc1c[nH]c2ncnc(N3C[C@@H](F)C[C@H]3c3nn4ccc(F)c4c(=O)n3-c3ccccn3)c12	IC50	nM	26

(a) N#Cc1c(N)ncnc1N1CC(F)(F)C[C@H]1c1nn2ccc(Cl)c2c(=O)n1-c1ccccc1
(b) CC(=O)c1cnc(N)nc1N[C@H](C)c1cc2ncc(Cl)n2c(=O)n1-c1ccccc1 (single isomer, unassigned)
Query string: Which gives the smaller IC50 number: a or b ? Your answer should be the label of the entry you select.
Result string: b

(1) CC(Nc1ncnc2[nH]cc(C#N)c12)c1cn2cccc2c(=O)n1-c1ccccc1 (stereo not drawn)
(2) Cc1nc(N)nc(N2C[C@H](C)[C@H]2c2nn3ccc(Cl)c3c(=O)n2-c2cccc(F)c2)c1C#N
Query string: Lab note: check whether 1 or 2 has the lower measured IC50. API: response body contains the label of the selected item.
Result string: 2

(1) CC(=O)c1n[nH]c2ncnc(N3CC[C@H]3c3nn4ccc(Cl)c4c(=O)n3-c3ccccc3)c12
(2) CC(Nc1ncnc(N)c1C#N)c1cc2ncc(Cl)n2c(=O)n1-c1ccccc1 (stereo not drawn)
Query string: Between these two entries, 1 and 2 , state which has the higher IC50. In your reply, give the label of the chosen option.
Result string: 1
(1: 158 nM, 2: 43 nM)

(a) N#Cc1c[nH]c2ncnc(N3C[C@@H](O)C[C@H]3c3nn4ccc(Cl)c4c(=O)n3-c3ccccc3)c12
(b) Nc1ncc(-c2n[nH]c3ncnc(N4CC[C@H]4c4nn5ccc(Cl)c5c(=O)n4-c4ccccc4)c23)cn1
(c) C[C@H]1CN(c2ncnc3[nH]cc(C#N)c23)[C@@H]1c1nn2ccc(F)c2c(=O)n1-c1ccccc1
(d) CC(=O)c1cnc(N)nc1NC(C)c1cn2ccc(Cl)c2c(=O)n1-c1ccccc1 (stereo not drawn)
Query string: Hey, can you sort those compounds up there by IC50, smallest first? A complete answer lists every label in the requested sequence.
Result string: d, a, c, b
